Test system: RMA
Details: carbonyl compound 1.5 mM, NADH 0.25 mM, pH 6.5, 30° C.; acetophenone = 100%
Lab note: anything with Relative activity (%) (reducing activity) below 70% is marked Met; values at 70% or higher are marked Not met.

- MOLECULE: "CC(=O)c1cccc(Cl)c1"
  TESTED SYSTEM: "RMA"
  CATEGORY: "Not met"
- MOLECULE: "CC(=O)c1ccc(Cl)cc1"
  TESTED SYSTEM: "RMA"
  CATEGORY: "Not met"
- MOLECULE: "O=C1CCSC1 [Tetrahydrothiophen-3-one]"
  TESTED SYSTEM: "RMA"
  CATEGORY: "Met"
- MOLECULE: "CCCCCC(=O)CC"
  TESTED SYSTEM: "RMA"
  CATEGORY: "Met"
- MOLECULE: "COC(=O)CC(C)=O [Methyl acetoacetate]"
  TESTED SYSTEM: "RMA"
  CATEGORY: "Met"

---

activity data for RMA follow.

- COMPOUND: "C[C@@H](O)C[C@@H](C)O [(2R,4R)-2,4-Pentandiol]"
  activity, %: 0.5
- COMPOUND: "C[C@H](O)CN [(S)-1-Amino-2-propanol]"
  activity, %: 2
- COMPOUND: "CCC(O)CC [3-Pentanol]"
  activity, %: 40
- COMPOUND: "CC(C)O [2-Propanol]"
  activity, %: 66
- COMPOUND: "CCCC(C)O (stereo not drawn) [2-Pentanol]"
  activity, %: 183
- COMPOUND: "C[C@H](O)c1ccccc1 [(S)-1-Phenylethanol]"
  activity, %: 307
- COMPOUND: "C[C@@H](O)CO [(R)-1,2-Propandiol]"
  activity, %: 0.7
- COMPOUND: "CCCCCCC(C)O (stereo not drawn) [2-Octanol]"
  activity, %: 134
- COMPOUND: "C[C@@H](O)CCO [(R)-1,3-Butandiol]"
  activity, %: 1.3
- COMPOUND: "C[C@H](O)CCO [(S)-1,3-Butandiol]"
  activity, %: 9.5
- COMPOUND: "C[C@H](O)CO [(S)-1,2-propandiol]"
  activity, %: 0.7
- COMPOUND: "CC(O)CC(C)O (stereo not drawn) [2,4-Pentandiol]"
  activity, %: 34
- COMPOUND: "OC1CCCCC1 [Cyclohexanol]"
  activity, %: 30
- COMPOUND: "CO [Methanol]"
  activity, %: 0.6
- COMPOUND: "CCC(O)C(=O)O (stereo not drawn) [2-Hydroxybutyric acid]"
  activity, %: 4.9

---

Tested on: RMA
Assay type: biochemical, Candida maltosa IFO 1977 strain
Conditions: inhibitor 1 mM, 30° C. for 30 minutes; untreated RMA = 100%
Description: In 1 mM concentration solution or mixture of various compounds, a polypeptide is treated at 30° C. for 30 minutes. […] Concentrations of agents at the time of treatment are illustrated in Table 6.
MEASURED QUANTITY: Relative activity (%) of RMA after treatment with inhibitor

- MOLECULE: "c1cnc2c(c1)ccc1cccnc12 [o-Phenanthroline]"
  UNIT DESCRIPTOR: "%"
  ASSAY RESULT: 0.0
- MOLECULE: "O=C(O)c1ccc(O)cc1 [p-Hydroxybenzoic acid]"
  UNIT DESCRIPTOR: "%"
  ASSAY RESULT: 91.5
- MOLECULE: "OCCS [β-Mercaptoethanol]"
  UNIT DESCRIPTOR: "%"
  ASSAY RESULT: 95.4
